tested.target: BDBV GP on rVSV particles (Bundibugyo virus (BDBV))
procedure.details: cell-based or functional assay
measured.attribute: Neutralization (VSV-GP IC50, nM)

[[record]]
binder = "mAb PE-24 (antibody, V domains shown) VH: EVQLVESGGGLVQPGGSLRLSCAASGFTFSSYAMSWVRQAPGKGLEWVSEISGLGGSTYYADSAKGRFTISRDNSKSTLYLQMNSLRAEDTAVYYCAKDHRVWAPGYYFDHWGQGTLVTVSS VL: DIVLTQSPSTLSASVGDRVTITCRASQSISSWLAWYQQKPGKAPKLLIYDASSLESGVPSRFSGSGSGTEFTLTISSLQPDDFATYFCQQYNRSPTFGGGTKVEIK"
result = "0.8 nM"

[[record]]
binder = "mAb PE-47 (antibody, V domains shown) VH: EVQLVESGGGLVKPGGSLRLSCAASGFTFSNAWMSWVRQAPGEGLEWVGRIKSKTDGGTIDYAAPVKGRFTISRDDSKNTVYLQMTSLKTEDTAVYYCTTYTEDMQYFDWLLRGGETFDYWGQGTLVTVSS VL: DIQMTQSPSSLSASVGDRVTITCRASQYISTYLNWYQQKPGKAPKLLIYAAYNLQSGVPSRFSGSGSGTDFTLTISSLQPEDFATYYCQQSYSTPGRYTFGQGTKVEIK"
result = "0.4 nM"

[[record]]
binder = "mAb PE-16 (antibody, V domains shown) VH: QVQLVQSGAEVTKPGASVKVSCKASGYTFTTYYMHWVRQAPGQGLEWVGIINPSGGITRYAQKFQGRVTLTRDTSTTTVYMELSSLRSEDTAVYYCARDRYPVLFATDYGMDVWGQGTTVTVSS VL: DIVMTQSPATLSLSPGERATLSCRASQSVSGYLAWYQQKPGQAPRLLIYDASNRATGIPARFSGSGSGTDFTLTISSLEPEDFAVYYCQQRSIWPPGVTFGGGTKVEIK"
result = "0.6 nM"

[[record]]
binder = "mAb PE-87 (antibody, V domains shown) VH: QVQLVQSGVTLVQPGGSLRVSCAASGFTFSSYAMSWVRQAPGKGLEWVSAISGLGGSTYYADSVKGRFTISRDNSKNTLYLQMNSLRAEDTAVYYCAKDHRVWAAGYHFDYWGQGALVTVSS VL: DIVLTQSPSTLSASVGDRVTITCRASQSISSWLAWYQQKPGEAPKLLISDASSLESGVPSRFSGSGSGTEFTLTISSLQPDDFATYYCQQYYSSPTFGGGTKVEIK"
result = "0.5 nM"


All figures here come from patent US20180244758A1.
